Known viability at 18 h, 10 µM of a selection of compounds
assay: Cytotoxicity against mouse HT22 cells assessed as cell viability at 10 uM after 18 hrs by MTT assay; assay type: cell-based, HT-22; conditions: read-out: Activity
The reply should contain only the number, in %.

SMILES DATA	UNIT INFO	MEASURED NUMBER
COc1cc(NC(=S)NCCCn2cncc2C)ccc1OCCCCN1CCNCC1	%	100
COc1cc(NC(=S)NCCCn2cncc2C)ccc1OCCCCN(C)C	%	100

Exam item: Please supply the value of reported viability at 18 h, 10 µM for the item "COc1cc(NC(=S)NCCCn2cncc2C)ccc1OCCN1CCNCC1"
Marked response: 100

Exam item: Please supply the value of reported viability at 18 h, 10 µM for the item "COc1cc(NC(=S)NCCCn2cncc2C)ccc1OCCCCc1ccnc(N)c1"
Marked response: 100

Exam item: Please supply the value of reported viability at 18 h, 10 µM for the item "COc1ccc(NC(=S)NCCCn2cncc2C)cc1OC"
Marked response: 100

Exam item: Please supply the value of reported viability at 18 h, 10 µM for the item "COc1cc(NC(=S)NCCCn2cncc2C)ccc1OCCCCNc1ncccn1"
Marked response: 100

Exam item: Please supply the value of reported viability at 18 h, 10 µM for the item "COc1cc(NC(=S)NCCCn2cncc2C)ccc1OCCc1ccnc(N)c1"
Marked response: 100

Exam item: Please supply the value of reported viability at 18 h, 10 µM for the item "COc1cc(NC(=S)NCCCn2cncc2C)ccc1OCCCN"
Marked response: 100

Exam item: Please supply the value of reported viability at 18 h, 10 µM for the item "COc1cc(NC(=S)NCCCn2cncc2C)ccc1OCCC1CCN(C)CC1"
Marked response: 100

Cited source for all entries: ChEMBL document CHEMBL4007443
